- measurement target: Cytochrome P450 2C19 (Homo sapiens)
- Sequence (P33261 whole entry): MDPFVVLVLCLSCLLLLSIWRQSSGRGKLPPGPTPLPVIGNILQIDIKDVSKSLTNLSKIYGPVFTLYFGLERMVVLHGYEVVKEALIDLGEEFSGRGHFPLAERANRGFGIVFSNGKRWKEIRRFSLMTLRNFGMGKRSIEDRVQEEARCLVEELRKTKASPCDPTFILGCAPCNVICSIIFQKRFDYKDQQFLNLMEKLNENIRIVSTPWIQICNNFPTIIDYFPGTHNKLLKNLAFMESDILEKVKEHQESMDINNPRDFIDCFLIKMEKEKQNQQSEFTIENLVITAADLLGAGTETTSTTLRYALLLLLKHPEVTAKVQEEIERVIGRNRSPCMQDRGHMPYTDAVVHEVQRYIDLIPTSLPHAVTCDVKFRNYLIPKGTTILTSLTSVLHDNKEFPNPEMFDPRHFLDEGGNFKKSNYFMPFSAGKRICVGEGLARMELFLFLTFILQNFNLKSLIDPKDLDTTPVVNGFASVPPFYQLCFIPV
test readout: IC50 (µM)

Use these answered entries as a reference point.
**Query** Hello, I am looking for reported IC50 with Cytochrome P450 2C19 (Homo sapiens) for Nc1c(C(=O)NCC(O)(CN(CCF)C(=O)c2c(F)cccc2F)C(F)(F)F)cnn1-c1ccc(F)cc1 (racemic) . Could you help?
**Result** 8

**Query** For CCN(CC(O)(CNC(=O)c1cnn(-c2ccc(F)cc2)c1N)C(F)(F)F)C(=O)c1ccccc1Cl (stereo in doubt; 13e) then?
**Result** 20

**Query** Quick one: CCN(CC(O)(CNC(=O)c1cnn(-c2ccc(F)cc2)c1N)C(F)(F)F)C(=O)c1c(F)cccc1F (stereo unspecified)
**Result** 18

**Query** Now give it for CCN(CC(O)(CNC(=O)c1cnn(-c2ccc(F)cc2)c1N)C(F)(F)F)C(=O)c1c(Cl)cccc1Cl (stereo unspecified) too.
**Result** 7

1 = CN(CC(O)(CNC(=O)c1cnn(-c2ccc(F)cc2)c1N)C(F)(F)F)C(=O)c1c(F)cccc1F (racemic)
2 = CCN(CC(O)(CNC(=O)c1cnn(-c2ccc(F)cc2)c1N)C(F)(F)F)C(=O)c1ccccc1Cl (stereo in doubt; 13d)
**Query** Between the two listed entries 1 and 2 , which has its IC50 at the higher number? # respond with the chosen item's label
**Result** 1

###

- method description: Oral bioavailability in Sprague-Dawley rat at 1 mg/kg
- Type: ADME, organism-based
- condition parameters: in vivo
test readout: bioavailability (%)

# example entries with known answers
**Query** Look up bioavailability: CCCN(CC(O)(CNC(=O)c1cnn(-c2ccc(F)cc2)c1N)C(F)(F)F)C(=O)c1c(F)cccc1F (racemic)
**Result** 16

**Query** Next: Nc1c(C(=O)NCC(O)(CN(CCO)C(=O)c2c(F)cccc2F)C(F)(F)F)cnn1-c1ccc(F)cc1 (centres undefined)
**Result** 44

I = CCN(CC(O)(CNC(=O)c1cnn(-c2ccc(F)cc2)c1N)C(F)(F)F)C(=O)c1ccccc1Cl (racemic)
II = CCN(CC(O)(CNC(=O)c1cnn(-c2ccc(F)cc2)c1N)C(F)(F)F)C(=O)c1ncccc1Cl (racemic)
III = CCN(CC(O)(CNC(=O)c1cnn(-c2ccc(F)cc2)c1N)C(F)(F)F)C(=O)c1ccccc1 (racemic)
IV = CCN(CC(O)(CNC(=O)c1cnn(-c2ccc(F)cc2)c1N)C(F)(F)F)C(=O)c1ccccc1S(C)(=O)=O (racemic)
**Query** Please list these in order of increasing bioavailability. Thank you! Dear reader, please state the labels in the requested order.
**Result** III, I, II, IV

a = CCN(CC(O)(CNC(=O)c1cnn(-c2ccc(F)cc2)c1N)C(F)(F)F)C(=O)c1c(F)cccc1S(C)(=O)=O (racemic)
b = Nc1c(C(=O)NCC(O)(CN(CCF)C(=O)c2c(F)cccc2F)C(F)(F)F)cnn1-c1ccc(F)cc1 (racemic)
**Query** Kindly compare a with b and tell me which has the lower bioavailability figure. When you have decided, please share the label of that item.
**Result** b

###

- method description: Clearance in Sprague-Dawley rat at 1 mg/kg, iv and 1 mg/kg, po
- Assay type: ADME, organism-based
- condition parameters: in vivo
test readout: clearance (mL/min/kg)

**Query** # clearance lookup, item Nc1c(C(=O)NCC(O)(CN(CCO)C(=O)c2c(F)cccc2F)C(F)(F)F)cnn1-c1ccc(F)cc1 (centres undefined)
**Result** 8

1 = CCN(CC(O)(CNC(=O)c1cnn(-c2ccc(F)cc2)c1N)C(F)(F)F)C(=O)c1c(F)cccc1F (centres undefined)
2 = CCN(CC(O)(CNC(=O)c1cnn(-c2ccc(F)cc2)c1N)C(F)(F)F)C(=O)c1ccccc1S(C)(=O)=O (racemic)
**Query** Identify the item whose clearance is the smaller number: 1 or 2 Lab log: write the label of the selected item as the result.
**Result** 2
(2: 17 mL/min/kg, 1: 27 mL/min/kg)
